# ASSAY NOTES: yeast display, Sf9 membrane polyspecificity reagent, FACS + sequencing; frameworks hold sequencing errors
READOUT LABEL: polyreactivity (PSR sort gate)

IN: Record request: polyreactivity (PSR sort gate) value, item QVQLVESGGGLVQAGGSLRLSCAASGFTFVYYAMGCYRQAPGKERELVAAISRSGATTFYADSVKGRFTISRDNAKNTVYLQMNSLKPEDTAVYYCAVDSYAYYYGYWGQGTQVTVSS
OUT: high polyreactivity

IN: Bench note: what polyreactivity (PSR sort gate) did QVQLVESGGGLVQAGGSHRLSCAASGGTFNTNAMGWYRQAPGKERELVATIRGGVITTYADSVKGRFTISRDNAKNTVYLQMNSLKPEDTAVYYFNKDNAPYAVSSIFGARDYWGQGTQVTVSS show?
OUT: low polyreactivity

IN: For QVQLVESGGGLVQAGGSLRLSCAASGFIFVPYAMGWYRQAPGQERELVAAISSSGGSTNYTDSVKGRFTISRDNAKNSVYLQMNRLKPEDTAVYYCAAATWYVNPTHFNRYSEFYYWGQGTQVTVSS , what is its reported polyreactivity (PSR sort gate)?
OUT: low polyreactivity

IN: What value of polyreactivity (PSR sort gate) has been recorded for this entry: QFQLVESGGGLVQAGGSLRLSCAASGFTFSGYAMGWYRQAPGKERELVAAINWRGDSTYYADSVKGRFTISRDNAKNTVYLHMNSLKPEDTAVYYCYVVLGPQRYSTDYGYWGQGTQVTVSS
OUT: high polyreactivity

IN: I'd like to know its polyreactivity (PSR sort gate). The sequence in question is QVQLVESGGGLVQAGGSLRLSCAASGRTFRVYAMGWYRQAPGKERELVAAITRGGSTYYADSVKGRFTISRDNAKNTVYLQMNSLKPEDTAVYYCAADVLRTQPIGWYSHSPLEYWGQGTQVTVSS
OUT: high polyreactivity

IN: What polyreactivity (PSR sort gate) value was documented for this sequence, QVQLVESGGGLVQAGGSLRLSCAASGFIFPAYAMGWYRQAPGKEMALVAAITSGGSTNYADSVKGRFTISRDNAKNTVYLQMNSLKPEDTAVYYCAADFDSILSVRSYRSRWYDYWGQGTQVAVSS ?
OUT: low polyreactivity

IN: Entry under review: QVQLVDSGGDLVKAGGSLRLSCDASGSTFRDYDMGWYRQAPGKERELVDAITGSGSSTYYADSVKGRFTISRDNAKNTVYLQMNSLKPEDTAVYYCAATWVVSYRVYRSYYWGQGTQVTVSS . Reported polyreactivity (PSR sort gate)?
OUT: low polyreactivity

IN: // polyreactivity (PSR sort gate) lookup, key: QVQLVESGGRLVQAGGSLRLSCAASGSIIAWYVLGWYRRAAGKERELVAGIDTSGGSTFYADSVMGRFTISRDIAKNTVYLQMNSLKTEATAVYYCAADTWYRGPWEFDYWGQGTQVTVSS
OUT: low polyreactivity

IN: polyreactivity (PSR sort gate) for QVQLVESGGGLVQAGGSLRLSCAATGRTFTVNPMGWYIQAPGKERELVAAITGSGGSTYYADSVKGRFTISRDNGKNTVYLQMNSLKPEDTAGYYCAADVNWFRWWSGSVELDYWGQGTQVTVTS ?
OUT: low polyreactivity

IN: Requested field: polyreactivity (PSR sort gate). Item: QVQLVESGGGLVQEGGSLRLSCAASGSIFVLYAMGWYRQAPGKERQLVAAINYEGASTYYADSVKGRFTISRDNAKITVYLQMNSLKPEDKAVFYCAARWQFNIDVQLYLFEYWGQGTQVTVSS
OUT: low polyreactivity

Further cases:
IN: Which polyreactivity (PSR sort gate) is reported for this sequence? QVQLVESGGGLVQAGGSLRLSCAASGFTFQYYAMGWYRQAPGKERELVAAISWGGGSTYYADSVKGRFTISRDNAKNTVYLQMNSLKPEDTAVYYCNAYEYLSAGYDYWGQGTQVTVSS
OUT: low polyreactivity

IN: Can you share its polyreactivity (PSR sort gate)? I mean this sequence: QVQLVESGGGLVQAGGSLRLSCAASGSIIRNAMGWYRQAPGKERELVAAINWSGGSTYYADSVKGRFTISRDNAKNTVYLQMNSLKPEDTAVYYCNKVRGTVHATRRNGDYWGQGTQVTVSS
OUT: high polyreactivity

IN: Look at this sequence and give its reported polyreactivity (PSR sort gate). QVQLVESGGGLVQAGGSLRLSCAASGSIFYKYAMGWYRQAPGKERELVAAISGSGGRTYYADSVKGRFTISRDNAKNTVYLQMNSLKPEDTAVYYCAAAKRTWRSDYWGQGTQVTVSS
OUT: high polyreactivity

IN: What measured polyreactivity (PSR sort gate) goes with QVQLVESGVGLVQAGGSLRLSCAASGSTFSIYALGWYRQAPGKERELVAAISWDSDDTYYADSVNGRFTISRDNAKNTVYLQMNSLKPEDTAVYYCAADRLDRYYYWGQGTQVTVSS ?
OUT: low polyreactivity

IN: // lookup polyreactivity (PSR sort gate) for QVQLVESGGGLVQAGGSLRLSCAASGSIFYVNAMGWYRQAPGKESELVAAISFSGGTTYYADSVKGRFTISRDNAKNTVYLQMNSLKPEDTAVYYCNTPSSREMDYWGQGTQVTVSS
OUT: low polyreactivity

IN: What does the record list as polyreactivity (PSR sort gate) for QVQLVESGGGLVQAGGSLRLSCAASGFILDYNAMGWYRQAPGKERELVATITGRGDRTYYADSVKGRFTISRDNAKNTVYLQMNSLKPEDTAVYYCAAAYLIYSDYGPAMDYWGQGTQVTVSS ?
OUT: low polyreactivity

IN: Value lookup for polyreactivity (PSR sort gate); key = QVQLVESGGGLVQAGGSLRLSCAASGIIFRGYVMGWYRQAPGKERELVAAISTSGGRTSYADSVKGRFTISRDYAKNTVYLQMNSLKPEDTAVYYCAARPLYSYSQWGYGYWGQVTQVTVSS
OUT: high polyreactivity

IN: I'd like to know its polyreactivity (PSR sort gate). The sequence in question is QVQLVESGGGLVQAGGSLRLSCAASGFTFTKYAMGWYRQAPGKERELVAAISGRGGSTYYADSVKGRFTISRDNAKNTVYLQMNRLKPEDTAVYYCAKYLYTVAGYNYWGQGTQVTVSS
OUT: high polyreactivity
